The origin of these recorded values is patent US9266930.

// values below are reported binding affinity ratio (IC50 of standard peptide / IC50 of test peptide)
Molecular target: HLA-A*0301 (human)

Reference set (3 entries):
HDLISDMIKK (modifications not checked): 0.0009
GVSSKKKNKK (modifications not checked): 0.0011
HDLISDMIK (modifications not checked): 0.0001

Entry under review: GVSSKKKNK (modifications not checked) . Reported binding affinity ratio (IC50 of standard peptide / IC50 of test peptide)?
0.0001
